# target_of_assay: T1, Human VSIG4-L-His (human, UniProt Q9Y279 20-283)
# T1 construct: long isoform ECD with His tag; also called hVSIG4-L
# T1 sequence: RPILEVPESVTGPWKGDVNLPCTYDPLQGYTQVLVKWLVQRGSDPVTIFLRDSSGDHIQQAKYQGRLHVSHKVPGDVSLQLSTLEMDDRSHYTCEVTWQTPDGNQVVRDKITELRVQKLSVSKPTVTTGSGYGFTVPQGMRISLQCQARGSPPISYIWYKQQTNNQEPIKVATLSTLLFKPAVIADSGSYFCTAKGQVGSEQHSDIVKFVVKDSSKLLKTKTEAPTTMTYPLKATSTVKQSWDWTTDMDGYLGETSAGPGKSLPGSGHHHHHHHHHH
# procedure_text: BLI (Octet), mouse IgG on AMC sensor, antigen 100 nM;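 also: octet Red384 biolayer interferometry with immobilized mouse hybridoma antibodies, 300 s association then 300 s dissociation at 30 °C, isotype-control reference subtraction, 1:1 global fit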
Entries annotated with measured pKd
Schema: pKd number; meaning minus log10 of the concentration expressed in molar units.

Example entries begin here.
1. 5D2.C8 murine hybridoma antibody (antibody, V domains shown, murine IgG purified from hybridoma supernatant) VH: EVKLVESGGGLVKPGGSLKLSCAVSGFTFSNSAMSWVRQTPAKRLEWVAYISISGDNTYYPDSVKGRFTISRDNAKNTLYLQMSSLRSEDTAMYYCARRGYDYDGFTHWGQGTLVTVSA VL: DILLTQSPAILSVSPGERVSFSCRASQNIGTSIHWYQQRTNGSPRLLIKYASQSISGIPSRFSGSGSGTDFTLSINSVESEDIADYYCQQSYSWPLTFGTGTQLELK : 9.32
2. 1C6.D6 murine hybridoma antibody (antibody, V domains shown, murine IgG purified from hybridoma supernatant; also called 1C6.D6b) VH: QVQLQQPGAEMVRPGTSVKLSCKASGYTFTSYWMHWVKQRPGQGLEWIGKIDPSHNKTHYIQKFEDKATLTVDKSSSTAYMHLNSLTSEDSAVYYCVTWDGDFLYWGQGTLVTVSA VL: NIVLTQSPASLTVSLGQRATISCRASESVDSYGNSFMHWYQQKPGQPPKLLIYITSNLQSGVPARFSGGGSRTDFTLTIDPVEADDAATYYCQQNNEDPWTFGGGTKLEIK : 8.99

Now examine the next entry.
pKd reported for this binder 14F8.H6 murine hybridoma antibody (antibody, V domains shown, murine IgG purified from hybridoma supernatant) VH: EVHLVESGGALVKPGGSLKLSCTASGFTFSNSVMSWIRQTPEKRLEWVATIGSGGTYIYYPDSVKGRFTISRDNSKNTLFLQMTSLRSEDTALYYCARHIYGYDVVDYWGQGTTLTVST VL: DIVMTQSHRFMSTSVGDRVSITCKASHDVSNVVAWYQQKPGQSPELLIYSASYRYTGVPARFTGSGSGTDFTFTISSVQAEDLAVYFCQQHFTTPLTFGAGTSLEVR : 8.76

Reference source for all entries: patent US20230348603A1
